Field: inhibition at 0.01 µM. Provide a value for each of the molecules that follow.
target_or_system: Substance P receptor (guinea pig ileum longitudinal muscle) (Cavia porcellus)
Construct: ileum was removed and the longitudinal muscle was stripped off; from tissue; host or cells: guinea pig ileum longitudinal muscle, washed membrane pellets
protocol: Receptor-binding test ([125I]SP ligand, guinea pig ileum longitudinal muscle receptor samples)
test_parameters: 10^-8 M compound; [125I]SP 50 pM, 22° C., 20 minutes
Where a name gives a salt, the structure may show the parent alone.
Give bare numbers, in %.

Known inhibition at 0.01 µM results, listed for orientation:
{"molecule": "CN(C)S(=O)(=O)c1cc(CN[C@H]2CCCN[C@H]2c2ccccc2)c2c(c1)CC(C)(C)O2.Cl [Example 7, hydrochloride]", "inhibition at 0.01 µM, %": 54}
{"molecule": "Cl.c1ccc([C@@H]2NCCC[C@@H]2NCc2cc(C3CCCCC3)cc3c2OCC3)cc1 [Example 26, hydrochloride]", "inhibition at 0.01 µM, %": 56.4}
{"molecule": "CC1Cc2cc(Cl)cc(CN[C@H]3CCCN[C@H]3c3ccccc3)c2O1.Cl (stereo partly drawn) [Example 14, hydrochloride]", "inhibition at 0.01 µM, %": 93.5}

// each listed molecule needs a value for inhibition at 0.01 µM
1. CSc1cc(CN[C@H]2CCCN[C@H]2c2ccccc2)c2c(c1)CC(C)(C)O2.Cl [Example 5, hydrochloride]
2. CC1Cc2cccc(CN[C@H]3CCCN[C@H]3c3ccccc3)c2O1.Cl (single isomer, unassigned) [Example 3, hydrochloride]
3. Cc1ccc(CN[C@H]2CCCN[C@H]2c2ccccc2)c2c1CC(C)(C)O2 [Example 16, hydrochloride]
4. CC1(C)Cc2cc(Cl)cc(CN[C@H]3CCCN[C@H]3c3ccccc3)c2O1.Cl [Example 11, hydrochloride]
5. CC1Oc2c(CN[C@H]3CCCN[C@H]3c3ccccc3)cccc2C1C.Cl (stereo partly drawn) [Example 20, hydrochloride]
6. Cl.FC(F)(F)Oc1cc2c(c(CN[C@H]3CCCN[C@H]3c3ccccc3)c1)OCC2 [Example 53, hydrochloride]
7. Cc1ccc(CN[C@H]2CCCN[C@H]2c2ccccc2)c2c1C(C)C(C)O2.Cl (stereo partly drawn) [Example 21, hydrochloride]

Response:
1: 91.8; 2: 96; 3: 82.5; 4: 85.8; 5: 65; 6: 53.5; 7: 53.1

Please report inhibition at 0.01 µM for every entry that follows.
1. COc1cc(CN[C@H]2CCCN[C@H]2c2ccccc2)c2c(c1)CC(C)O2.Cl (stereo partly drawn) [Example 15, hydrochloride]
2. CC1(C)Cc2cc([N+](=O)[O-])cc(CN[C@H]3CCCN[C@H]3c3ccccc3)c2O1.Cl [Example 4, hydrochloride]

Response:
[88.1, 89.7]

---

target_or_system: Substance P receptor (guinea pig ileum longitudinal muscle) (Cavia porcellus)
Construct: ileum was removed and the longitudinal muscle was stripped off; from tissue; host or cells: guinea pig ileum longitudinal muscle, washed membrane pellets
protocol: Receptor-binding test ([125I]SP ligand, guinea pig ileum longitudinal muscle receptor samples)
test_parameters: 10^-8 M compound; [125I]SP 50 pM, 22° C., 20 minutes
Procedure: To the longitudinal muscles, 20 times of the wet weight of the buffer solution (1) (50 mM tris-HCl buffer solution containing 2 mM MgCl2 and 0.1 mM phenyl methyl sulfonyl-fluoride, pH 7.4) was added. The mixture was homogenized under ice-cooling and centrifuged at 48,000×G for 15 minutes. After removing the supernatant, the pellets were re-suspended in the buffer solution (1) and centrifuged at 48,000×G for 15 minutes. […]
Hi there, I'd appreciate the recorded inhibition at 0.01 µM for every entry that follows.
One number for each entry, in %.

Example entries begin here.
{"compound": "CC(C)(C)c1cc2c(c(CN[C@H]3CCCN[C@H]3c3ccccc3)c1)OCC2.Cl [Example 24, hydrochloride]", "inhibition at 0.01 µM / %": 50.3}
{"compound": "Cl.c1ccc([C@@H]2NCCC[C@@H]2NCc2ccc3c(c2)OCCO3)cc1 [Example 19, hydrochloride]", "inhibition at 0.01 µM / %": 48.7}
{"compound": "Cl.c1ccc([C@@H]2NCCC[C@@H]2NCc2cccc3c2OCC3)cc1 [Example 13, hydrochloride]", "inhibition at 0.01 µM / %": 84.7}
{"compound": "CC1(C)Cc2c(Cl)ccc(CN[C@H]3CCCN[C@H]3c3ccccc3)c2O1.Cl [Example 18, hydrochloride]", "inhibition at 0.01 µM / %": 89.9}
{"compound": "CSc1cc2c(c(CN[C@H]3CCCN[C@H]3c3ccccc3)c1)OCC2.Cl [Example 46, hydrochloride]", "inhibition at 0.01 µM / %": 65.3}
{"compound": "CC1(C)Cc2cc(S(C)(=O)=O)cc(CN[C@H]3CCCN[C@H]3c3ccccc3)c2O1.Cl [Example 6, hydrochloride]", "inhibition at 0.01 µM / %": 74.8}

Query: inhibition at 0.01 µM; subject: Cc1cc(CN[C@H]2CCCN[C@H]2c2ccccc2)c2c(c1)CC(C)(C)O2.Cl [Example 17, hydrochloride]
Response: 94.2

---

Tested on: Substance P
protocol: Antagonism test on Substance P-induced airway edema
Type: in vivo, guinea pig (hartley male)
test_parameters: Cavia porcellus, po; 1 mg/kg orally, thirty minutes before induction; compared to the control group; read-out: Inhibition Rate (airway edema, dye transudated into trachea and main bronchi)
endpoint: inhibition in vivo at 1 mg/kg (%)
Give bare numbers, in %.

The cases that follow already have their inhibition in vivo at 1 mg/kg on record.
{"compound": "Cl.c1ccc([C@@H]2NCCC[C@@H]2NCc2cc(C3CCCC3)cc3c2OCC3)cc1 [Example 25, hydrochloride]", "measurement_unit": "%", "meas_value": 90}
{"compound": "CSc1cc2c(c(CN[C@H]3CCCN[C@H]3c3ccccc3)c1)OCC2.Cl [Example 46, hydrochloride]", "measurement_unit": "%", "meas_value": 72}
{"compound": "CC(C)c1cc2c(c(CN[C@H]3CCCN[C@H]3c3ccccc3)c1)OCC2.Cl [Example 23, hydrochloride]", "measurement_unit": "%", "meas_value": 89}
{"compound": "CC(C)(C)c1cc2c(c(CN[C@H]3CCCN[C@H]3c3ccccc3)c1)OCC2.Cl [Example 24, hydrochloride]", "measurement_unit": "%", "meas_value": 64}
{"compound": "Cl.c1ccc([C@@H]2NCCC[C@@H]2NCc2cc(C3CCCCC3)cc3c2OCC3)cc1 [Example 26, hydrochloride]", "measurement_unit": "%", "meas_value": 61}

Query: What inhibition in vivo at 1 mg/kg appears in the records for this compound with Substance P? Cl.FC(F)(F)Oc1cc2c(c(CN[C@H]3CCCN[C@H]3c3ccccc3)c1)OCC2 [Example 53, hydrochloride]
Response: 69

---

Please go through the items and note down their inhibition at 0.01 µM.
target_or_system: Substance P receptor (guinea pig ileum longitudinal muscle) (Cavia porcellus, UniProt P30547)
Construct: ileum was removed and the longitudinal muscle was stripped off; from tissue; host or cells: guinea pig ileum longitudinal muscle, washed membrane pellets
Sequence (P30547 whole entry): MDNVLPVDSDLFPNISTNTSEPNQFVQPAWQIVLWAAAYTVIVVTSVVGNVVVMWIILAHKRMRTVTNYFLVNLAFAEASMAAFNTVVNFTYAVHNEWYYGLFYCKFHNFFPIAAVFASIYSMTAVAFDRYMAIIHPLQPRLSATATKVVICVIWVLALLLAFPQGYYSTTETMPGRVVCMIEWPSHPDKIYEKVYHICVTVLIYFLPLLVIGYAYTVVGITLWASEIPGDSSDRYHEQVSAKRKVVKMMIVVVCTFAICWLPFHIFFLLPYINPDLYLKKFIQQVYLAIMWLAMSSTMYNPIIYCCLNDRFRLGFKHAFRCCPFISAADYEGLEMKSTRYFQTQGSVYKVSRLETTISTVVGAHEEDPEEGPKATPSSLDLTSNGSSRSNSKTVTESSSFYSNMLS
protocol: Receptor-binding test ([125I]SP ligand, guinea pig ileum longitudinal muscle receptor samples)
test_parameters: 10^-8 M compound; [125I]SP 50 pM, 22° C., 20 minutes
Structures can show the parent of a compound that is named as a salt.
Give bare numbers, in %.

Some compounds with known inhibition at 0.01 µM results, for comparison:
{"compound": "COc1cc(CN[C@H]2CCCN[C@H]2c2ccccc2)c2c(c1)CC(C)(C)O2 [Example 12, hydrochloride]", "inhibition at 0.01 µM, %": 82.2}
{"compound": "CC1Cc2cc(S(=O)(=O)N(C)C)cc(CN[C@H]3CCCN[C@H]3c3ccccc3)c2O1 (stereo partly shown) [Example 8, hydrochloride]", "inhibition at 0.01 µM, %": 92}

Quick batch: inhibition at 0.01 µM for everything below.
1. CC1(C)Cc2cccc(CN[C@H]3CCCN[C@H]3c3ccccc3)c2O1.Cl [Example 2, hydrochloride]
2. Cl.c1ccc([C@@H]2NCCC[C@@H]2NCc2ccc3c(c2)OCO3)cc1 [Example 9, hydrochloride]
3. c1ccc([C@@H]2NCCC[C@@H]2NCc2cccc3c2OCCC3)cc1
4. CC(C)c1cc2c(c(CN[C@H]3CCCN[C@H]3c3ccccc3)c1)OCC2.Cl [Example 23, hydrochloride]
5. Cl.c1ccc([C@@H]2NCCC[C@@H]2NCc2cc(C3CCCC3)cc3c2OCC3)cc1 [Example 25, hydrochloride]

Response:
1. 74.8
2. 36.6
3. 86.2
4. 83.2
5. 89.2
